- Procedure Summary: APR_HepG2_MitoMass_72hr: Apredica 72-hour HepG2 Assay for Mitochondrial Mass (AID 2282924);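 note: MitoTracker Red CMXRos stain intensity per cell imaged as mitochondrial mass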
- Applied Conditions: high-content imaging, actives raise or lower the signal
The source made the active and inactive calls. Rule for the calls: active = hit-call score of the fitted dose curve at least 0.9, where 1 is the maximum; inactive = score below 0.9.
Return exactly one item of true (1) = active, false (0) = inactive

INSERT INTO measurements (molecule, label) VALUES
  ('COC(=O)Nc1nc2ccccc2[nH]1', 'true (1)'),
  ('CCCCCCCCOC(=O)c1ccc(C(=O)OCCCCCCCC)c(C(=O)OCCCCCCCC)c1', 'false (0)'),
  ('ClC1=C(Cl)C2(Cl)C3C(Cl)C=CC3C1(Cl)C2(Cl)Cl (stereo not drawn)', 'true (1)'),
  ('O=C(Nc1ccccc1)c1ccccc1I', 'false (0)'),
  ('Cc1cc(N=Nc2ccccc2C)ccc1N', 'false (0)'),
  ('Clc1ccccc1Cl', 'false (0)'),
  ('CCN(CC)N=O', 'false (0)'),
  ('CC(C)COC(=O)c1ccccc1C(=O)OCC(C)C', 'true (1)'),
  ('ClCCOCCCl', 'false (0)'),
  ('CCN(CC)CCO', 'false (0)');

# lookup: test call for N#CC(Br)(Br)C(N)=O
false (0)

# lookup: test call for Clc1ccc(C(c2ccc(Cl)cc2)C(Cl)(Cl)Cl)cc1
false (0)

# lookup: test call for Clc1ccc(Cl)c(Cl)c1
false (0)

# lookup: test call for Cc1ccc(N)c(N)c1
false (0)

# lookup: test call for CO[C@@H]1[C@H](OC(=O)NC(=O)CCl)CC[C@]2(CO2)[C@H]1[C@@]1(C)O[C@@H]1CC=C(C)C
false (0)

# lookup: test call for O=C(Oc1ccc(Br)cc1)N1CCN2CCC1CC2
false (0)
